System Under Test: Sho1, P40073
Sequence (P40073 287-367): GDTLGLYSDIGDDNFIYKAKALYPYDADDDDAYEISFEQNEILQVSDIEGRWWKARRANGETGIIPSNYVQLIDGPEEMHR
Experiment Description: SPOT array
Assay Context: median of control spots 1148
Reported Endpoint: SPOT intensity
Give only the figure.

Can you look up the measured SPOT intensity of NLDRSKISLPDFDDE for me? 16

Can you look up the measured SPOT intensity of SRQAIPPPVPNRPGG for me? 14

Can you look up the measured SPOT intensity of QTREPNEPPPPSPAM for me? 0

Further cases:
Can you look up the measured SPOT intensity of ATNVPVAPPPPPASL for me? 0

Can you look up the measured SPOT intensity of FFRRSELYLPNSSKA for me? 62
